Values were extracted from PubChem BioAssay (NCI).

- Test system: KM12 colon
- assay protocol: NCI tumour cell line growth inhibition, 48 h
measure name: TGI

compound="O=[N+]([O-])c1ccc(Cl)cc1C1SCc2nc3ccccc3n21 (stereo unspecified)" endpoint_value="> 100 µM"
compound=COc1cccc(-c2nc(-c3cnccn3)n(COCCO)n2)c1 endpoint_value="> 100 µM"
compound="C[C@]12CC[C@H](O)CC1=CC[C@@H]1C2CC[C@]2(C)Nc3c(cnn3-c3ccc(F)cc3)CC12 (stereo partly specified)" endpoint_value="> 100 µM"

Now examine the next entry.
query: TGI lookup needed for O=c1[nH]n(Cc2ccccc2Cl)c2ccccc12 , thanks.
result: > 100 µM

====

TGI listing for selected compounds.
- Tested on: BT-549 breast
- assay protocol: NCI tumour cell line growth inhibition, 48 h
Reply with just the number (in µM).

Here is how some compounds turned out for TGI.
compound="C/C=C(\\C)C(=O)N[C@H]1C(O)C[C@]2(C)C3CC[C@@]4(C)C(CC[C@@H]4C(C)N(C)C)C3CCC2C1O (stereo partly specified)" unit_string=µM endpoint_value=51.9
compound=C/C=C/[C@H](O[Si](C)(C)C(C)(C)C)[C@@H](O)/C=C/C(=O)OCC unit_string=µM endpoint_value=65.4
compound=COC(=O)[C@@H](C)C[C@H](Cc1ccccc1)NC(=O)c1csc([C@@H](C[C@H](C(C)C)N(C)C(=O)[C@H](C)NC(=O)[C@H]2CCCCN2C)OC(C)=O)n1 unit_string=µM endpoint_value=17.5
compound=COc1ccc2nc(NC(=O)c3cccnc3Nc3cc(OC)c(OC)c(OC)c3)sc2c1 unit_string=µM endpoint_value=28.2
compound=Cc1ccc(-c2nc(N3CCCNCC3)c3oc(-c4ccc(C)cc4)nc3n2)cc1 unit_string=µM endpoint_value=35

query: TGI lookup needed for COc1cc(/C=C/C(=O)c2cccnc2Nc2ccc(F)cc2)cc(OC)c1OC , thanks.
result: 6.72

query: TGI lookup needed for Cc1cccc2c(N)c3ccccc3nc12 , thanks.
result: 12.9

====

- System: M14 melanoma
- assay protocol: NCI tumour cell line growth inhibition, 48 h
TGI listing for selected compounds.

Here is how some compounds turned out for TGI.
compound="O=[N+]([O-])c1ccc(Cl)cc1C1SCc2nc3ccccc3n21 (stereo not drawn)" endpoint_value="> 100 µM"
compound=CN(C)C(=S)/N=c1\ss/c(=N\S(=O)(=O)c2ccccc2)n1N(C)C endpoint_value="> 100 µM"

query: TGI lookup needed for CCn1c2ccccc2c2cc(C(O)c3cccc4ncccc34)ccc21 (stereo not drawn) , thanks.
result: > 100 µM

====

- System: HCT-15 colon
- assay protocol: NCI tumour cell line growth inhibition, 48 h
log10(TGI) listing for selected molecules.
Values are log10 of TGI in µM.

Here is how some molecules turned out for log10(TGI).
molecule="C/C=C(\\C)C(=O)N[C@H]1C(O)C[C@]2(C)C3CC[C@@]4(C)C(CC[C@@H]4C(C)N(C)C)C3CCC2C1O (stereo not given in full)" assay_system="HCT-15 colon" endpoint_value=0.70
molecule=CCN(CC)CCSCCCNc1c2ccc(Cl)cc2nc2ccc(OC)cc12 assay_system="HCT-15 colon" endpoint_value=0.37
molecule=CO[C@H]1CC(c2ccc[nH]2)=N[C@]12O[C@@H](C)C[C@@H]1CCCCCCCc3ccc([nH]3)[C@H]12 assay_system="HCT-15 colon" endpoint_value=0.93
molecule=O=C(O)/C=C/C(=O)N1C/C(=C\c2ccccc2)C(=O)/C(=C/c2ccccc2)C1 assay_system="HCT-15 colon" endpoint_value=1.31
molecule=CN(C)Cc1cc(N=Nc2ccc(Cl)cc2)ccc1OC(=O)c1ccccc1 assay_system="HCT-15 colon" endpoint_value=1.46
molecule="CC(=O)O[C@@H](C1C[C@@H](C)[C@H]2[C@@](O)(O1)[C@H](O)[C@@]1(C)C3=CC[C@H]4C(C)(C)[C@@H](OC5OCC(O)C(O)C5O)CC[C@@]45C[C@@]35CC[C@]21C)C(C)(C)O (stereo not given in full)" assay_system="HCT-15 colon" endpoint_value=1.85
molecule=C/C(=N\Nc1nc2ccccc2s1)c1cc(C)ncn1 assay_system="HCT-15 colon" endpoint_value=1.11
molecule="CC(CCCOC(c1ccccc1)(c1ccccc1)c1ccccc1)OC(=O)Nc1ccccc1 (stereo not given)" assay_system="HCT-15 colon" endpoint_value=1.45

query: log10(TGI) lookup needed for Cc1c(C)c(S(=O)(=O)N(CCCCCON)OCCCN)c(C)c2c1OC(C)(C)CC2 , thanks.
result: 1.45

query: log10(TGI) lookup needed for CCN(CC)CCO/N=C1/C=C2CCC3C(CC[C@@]4(C)C3CC[C@]4(C)O)[C@@]2(C)CC1 (stereo not given in full) , thanks.
result: 1.14
